Recorded EC50, one value per entry.
tested on: Plasmodium falciparum; assay: NOVARTIS: Inhibition of Plasmodium falciparum W2 (drug-resistant) proliferation in erythrocyte-based infection assay; type: functional, organism-based; conditions: Plasmodium falciparum, W2; read-out: EC50
observation.type: EC50 (nM)

1. COc1cccc(C(=O)NCc2nnc(S)n2-c2ccc(Cl)c(Cl)c2)c1    273
2. CCCCCC1CCCc2c1[nH]c1cc(Cl)ccc1c2=O (centres undefined)    302
3. COc1ccc2c(c1)N(C(=O)CSc1nc3ccccc3o1)C(C)(C)c1ssc(=S)c1-2    392
4. CCCCCCC[N+](CC)(CC)CCCCc1ccc(Cl)cc1    90.9
5. O=C(Nc1ccc(-c2ccc(Cl)cc2)cc1)c1cccs1    225
6. OC1(c2ccc3ccccc3c2)c2c(c3ccccc3c3ccccc23)C2=NCCN21 (centres undefined)    281
7. O=C(CSc1nccn1C1CCCC1)Nc1cc(C(F)(F)F)ccc1Cl    714
8. COc1ccc([N+](=O)[O-])cc1C=NNc1nc(Nc2ccc([N+](=O)[O-])cc2)nc(N2CCN(C)CC2)n1    388
9. CCCCN(CCCC)CCCNc1ncnc2c1[nH]c1ccc(C)cc12    100
10. COc1cccc(C(NC(=O)c2ccccc2)c2ccc3cccnc3c2O)c1 (centres undefined)    216
11. COc1cc(C(c2c(C)n(C)n(-c3ccccc3)c2=O)c2c(C)n(C)n(-c3ccccc3)c2=O)cc(Cl)c1OCc1ccccc1    456
12. COc1c(N2CCN(Cc3c(C)cc(C)cc3C)CC2)c2nc3oc2c2c(OC(=O)C(C)(C)C)c(C)c4c(c12)[C@@H](O)[C@@](C)(OC=C[C@H](OC)[C@@H](C)[C@@H](OC(C)=O)C(C)[C@H](O)[C@H](C)[C@@H](O)C(C)C=CC=C3C)O4 (some centres undefined)    554
13. O=C1c2cccc(N3CCCC(C(=O)N4CCCCC4c4cccnc4)C3)c2C(=O)N1Cc1ccc(C(F)(F)F)cc1 (centres undefined)    1530
14. CC1Cc2ccc(F)cc2CN1C(=O)c1ccc(COc2ccccc2Br)o1 (centres undefined)    6350
15. CCN(CC)C(=O)COc1ccc(-c2nnc(N3CCCCC3)c3ccccc23)cc1    508
16. O=C(Nc1ccc(C(F)(F)F)cc1)c1cc(S(=O)(=O)NC2CCCCCC2)ccc1F    3330
17. O=C(Nc1ccc(CC2=NCCCN2)cc1)c1ccc(C(=O)Nc2ccc(CC3=NCCCN3)cc2)cc1    128
18. COc1cccc(-c2ccc(O)c(CNCC3CC4C=CC3C43CC3)c2)n1 (centres undefined)    19.9
19. c1ccc(/C2=N/c3ccccc3/N=C(/c3ccccc3)c3ccccc32)cc1    770
20. Cc1cccc(CCNc2cc(C)nc3ncnn23)c1    1080
21. CCCC(=O)N1CCN(C(=O)c2nc(-c3ccccc3)nc(CCC)c2C(=O)OCC)CC1C (centres undefined)    774
22. Cc1c(-c2ccc(Cl)cc2)[n+]2c(n1-c1ccccc1)SCCC2    1040
